system_name: haspin (Homo sapiens)
Sequence (Q8TF76 1-798): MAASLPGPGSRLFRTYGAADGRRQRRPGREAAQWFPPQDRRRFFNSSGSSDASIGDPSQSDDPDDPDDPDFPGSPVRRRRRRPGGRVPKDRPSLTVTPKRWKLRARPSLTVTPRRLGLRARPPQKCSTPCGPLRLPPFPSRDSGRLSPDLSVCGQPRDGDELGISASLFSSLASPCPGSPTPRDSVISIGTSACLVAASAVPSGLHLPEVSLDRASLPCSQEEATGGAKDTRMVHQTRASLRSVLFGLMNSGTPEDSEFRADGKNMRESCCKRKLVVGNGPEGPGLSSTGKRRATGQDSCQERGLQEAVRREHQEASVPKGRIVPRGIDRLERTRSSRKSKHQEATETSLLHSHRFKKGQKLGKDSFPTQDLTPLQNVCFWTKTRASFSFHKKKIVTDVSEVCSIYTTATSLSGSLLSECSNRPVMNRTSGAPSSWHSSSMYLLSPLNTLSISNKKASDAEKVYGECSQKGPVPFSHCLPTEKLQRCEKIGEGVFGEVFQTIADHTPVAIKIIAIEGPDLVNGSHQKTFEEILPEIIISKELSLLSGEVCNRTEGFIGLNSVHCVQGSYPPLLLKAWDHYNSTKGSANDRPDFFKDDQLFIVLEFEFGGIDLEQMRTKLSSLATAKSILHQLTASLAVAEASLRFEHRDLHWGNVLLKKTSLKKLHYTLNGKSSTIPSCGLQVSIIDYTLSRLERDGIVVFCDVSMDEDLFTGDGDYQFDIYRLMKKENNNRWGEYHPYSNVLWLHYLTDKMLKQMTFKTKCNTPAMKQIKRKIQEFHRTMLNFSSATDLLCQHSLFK
protocol_description: ADP Glo Kinase Assay, haspin, 50 nM inhibitor
Type: biochemical
setup_conditions: 50 nM inhibitor conc.; means of triplicates; read-out: Percent Inhibition (%) Haspin
reported_metric: inhibition at 0.05 µM (%)

| compound | unit_name | inhibition at 0.05 µM |
| --- | --- | --- |
| O=C(NCc1ncn[nH]1)c1ccc(-c2nc3ccc4[nH]ncc4c3c3c2CCCC3)cc1 | % | 57 |
| FC(F)(F)c1n[nH]cc1-c1nc2ccc3[nH]ncc3c2c2c1CCCC2 [HSD1169, reference compound] | % | 39 |
| Cc1c[nH]c(CNC(=O)c2ccc(-c3nc4ccc5[nH]ncc5c4c4c3CCCC4)cc2)n1 | % | 97 |

A: O=C(NCc1ncc[nH]1)c1ccc(-c2nc3ccc4[nH]ncc4c3c3c2CCCC3)cc1F
B: Cn1ccnc1CNC(=O)c1ccc(-c2nc3ccc4[nH]ncc4c3c3c2CCCC3)cc1
Request: Of A and B , which shows the smaller inhibition at 0.05 µM value? Use the label to indicate which entry you chose.
Response: B
(B: 26%, A: 76%)

a: O=C(NCc1nnn[nH]1)c1ccc(-c2nc3ccc4[nH]ncc4c3c3c2CCCC3)cc1
b: O=C(NCCn1ccnc1)c1ccc(-c2nc3ccc4[nH]ncc4c3c3c2CCCC3)cc1
Request: Compare a and b by numeric inhibition at 0.05 µM and name the larger one. Use the label to indicate which entry you chose.
Response: a

1: O=C(NCc1c[nH]cn1)c1ccc(-c2nc3ccc4[nH]ncc4c3c3c2CCCC3)cc1
2: O=C(NCCc1ncc[nH]1)c1ccc(-c2nc3ccc4[nH]ncc4c3c3c2CCCC3)cc1
3: CCc1nc(C(N)=O)c(Nc2ccc(N3CCC(N4CCN(C)CC4)CC3)c(OC)c2)nc1NC1CCOCC1 [gilteritinib, reference compound]
Request: Would you mind ranking these compounds by ascending inhibition at 0.05 µM? The reply should contain the labels ordered as requested.
Response: 3, 1, 2
(3: 11%, 1: 54%, 2: 78%)

1: O=C(NCc1ncc[nH]1)c1ccc(-c2nc3ccc4[nH]ncc4c3c3c2CCCC3)cc1
2: O=C(NCc1cc[nH]c1)c1ccc(-c2nc3ccc4[nH]ncc4c3c3c2CCCC3)cc1
Request: Compare 1 and 2 by numeric inhibition at 0.05 µM and name the larger one. Use the label to indicate which entry you chose.
Response: 1

###

system_name: CDK12/CyclinK (Homo sapiens)
Sequence (Q9NYV4 whole entry): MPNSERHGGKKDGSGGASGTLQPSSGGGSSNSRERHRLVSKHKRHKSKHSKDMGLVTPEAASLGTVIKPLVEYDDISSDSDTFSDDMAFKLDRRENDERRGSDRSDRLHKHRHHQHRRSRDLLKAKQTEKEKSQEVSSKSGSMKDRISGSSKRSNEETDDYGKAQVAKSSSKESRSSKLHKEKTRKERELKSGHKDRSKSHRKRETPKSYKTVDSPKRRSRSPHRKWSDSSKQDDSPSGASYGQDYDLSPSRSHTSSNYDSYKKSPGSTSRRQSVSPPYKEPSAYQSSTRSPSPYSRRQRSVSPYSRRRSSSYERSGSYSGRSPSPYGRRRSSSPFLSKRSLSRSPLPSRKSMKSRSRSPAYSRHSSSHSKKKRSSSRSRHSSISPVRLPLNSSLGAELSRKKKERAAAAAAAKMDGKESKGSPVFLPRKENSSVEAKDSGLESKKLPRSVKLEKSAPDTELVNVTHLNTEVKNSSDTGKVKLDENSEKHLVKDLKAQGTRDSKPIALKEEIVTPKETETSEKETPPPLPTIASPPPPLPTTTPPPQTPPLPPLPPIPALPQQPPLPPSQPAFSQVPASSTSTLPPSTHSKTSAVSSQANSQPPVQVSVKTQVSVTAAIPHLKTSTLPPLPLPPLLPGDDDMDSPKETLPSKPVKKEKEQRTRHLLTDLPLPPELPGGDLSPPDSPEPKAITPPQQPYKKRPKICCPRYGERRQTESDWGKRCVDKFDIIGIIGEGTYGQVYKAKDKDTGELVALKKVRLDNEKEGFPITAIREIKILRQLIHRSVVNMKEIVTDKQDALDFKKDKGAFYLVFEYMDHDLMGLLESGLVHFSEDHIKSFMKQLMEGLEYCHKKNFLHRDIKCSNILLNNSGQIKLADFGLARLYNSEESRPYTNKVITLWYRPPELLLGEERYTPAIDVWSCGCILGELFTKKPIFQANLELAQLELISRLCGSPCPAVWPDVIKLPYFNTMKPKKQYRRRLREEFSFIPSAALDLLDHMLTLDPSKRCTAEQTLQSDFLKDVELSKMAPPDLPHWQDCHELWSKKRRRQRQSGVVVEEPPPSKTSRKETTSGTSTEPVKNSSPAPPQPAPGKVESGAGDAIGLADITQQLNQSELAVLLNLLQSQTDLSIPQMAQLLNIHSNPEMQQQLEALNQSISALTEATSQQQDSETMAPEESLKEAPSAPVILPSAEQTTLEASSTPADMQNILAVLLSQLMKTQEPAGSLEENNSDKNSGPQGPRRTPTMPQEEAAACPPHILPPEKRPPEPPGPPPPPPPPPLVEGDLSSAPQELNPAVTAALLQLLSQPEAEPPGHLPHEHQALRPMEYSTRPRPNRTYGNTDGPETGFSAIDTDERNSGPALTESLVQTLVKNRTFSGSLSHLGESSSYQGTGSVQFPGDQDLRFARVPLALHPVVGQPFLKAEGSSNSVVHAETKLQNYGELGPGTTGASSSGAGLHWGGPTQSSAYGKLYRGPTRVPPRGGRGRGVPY
Sequence (O75909 whole entry partner): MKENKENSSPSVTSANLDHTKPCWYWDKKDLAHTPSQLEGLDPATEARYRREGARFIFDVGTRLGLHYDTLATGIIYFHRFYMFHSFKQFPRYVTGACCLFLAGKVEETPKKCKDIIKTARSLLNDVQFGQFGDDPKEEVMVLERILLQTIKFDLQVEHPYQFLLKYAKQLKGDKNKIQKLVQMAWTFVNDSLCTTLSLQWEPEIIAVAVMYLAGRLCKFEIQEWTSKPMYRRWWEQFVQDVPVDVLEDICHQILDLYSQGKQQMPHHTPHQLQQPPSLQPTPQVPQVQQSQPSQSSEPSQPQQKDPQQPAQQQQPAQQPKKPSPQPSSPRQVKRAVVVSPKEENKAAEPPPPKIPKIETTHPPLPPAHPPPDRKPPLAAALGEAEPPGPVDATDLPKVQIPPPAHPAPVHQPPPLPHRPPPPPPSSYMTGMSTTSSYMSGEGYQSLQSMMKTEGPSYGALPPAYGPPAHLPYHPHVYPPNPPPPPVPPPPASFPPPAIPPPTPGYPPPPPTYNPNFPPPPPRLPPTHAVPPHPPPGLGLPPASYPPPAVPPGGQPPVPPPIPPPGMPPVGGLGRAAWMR
protocol_description: CDK12/CyclinK inhibition (IC50)
pIC50: −log10 of the molar value.
reported_metric: pIC50

A: O=C(NO)c1ccc(-c2nc3ccc4[nH]ncc4c3c3c2CCCC3)cc1 [Compound HSD1993]
B: CN(C)C/C=C/C(=O)Nc1ccc(C(=O)N2CCC[C@@H](Nc3ncc(Cl)c(-c4c[nH]c5ccccc45)n3)C2)cc1 [THZ531, reference compound]
C: CN(C)CCNC(=O)c1ccc(-c2nc3ccc4[nH]ncc4c3c3c2CCCC3)cc1 [Compound HSH2177]
Request: Parameters: sort_field (pIC50), sort_dir (desc). The reply should contain the labels ordered as requested.
Response: A, C, B
(A: 8.05, C: 7.57, B: 7.22)

###

system_name: FLT3-D835Y (Homo sapiens, UniProt P36888, D835Y)
Sequence (P36888 27-993 D835Y): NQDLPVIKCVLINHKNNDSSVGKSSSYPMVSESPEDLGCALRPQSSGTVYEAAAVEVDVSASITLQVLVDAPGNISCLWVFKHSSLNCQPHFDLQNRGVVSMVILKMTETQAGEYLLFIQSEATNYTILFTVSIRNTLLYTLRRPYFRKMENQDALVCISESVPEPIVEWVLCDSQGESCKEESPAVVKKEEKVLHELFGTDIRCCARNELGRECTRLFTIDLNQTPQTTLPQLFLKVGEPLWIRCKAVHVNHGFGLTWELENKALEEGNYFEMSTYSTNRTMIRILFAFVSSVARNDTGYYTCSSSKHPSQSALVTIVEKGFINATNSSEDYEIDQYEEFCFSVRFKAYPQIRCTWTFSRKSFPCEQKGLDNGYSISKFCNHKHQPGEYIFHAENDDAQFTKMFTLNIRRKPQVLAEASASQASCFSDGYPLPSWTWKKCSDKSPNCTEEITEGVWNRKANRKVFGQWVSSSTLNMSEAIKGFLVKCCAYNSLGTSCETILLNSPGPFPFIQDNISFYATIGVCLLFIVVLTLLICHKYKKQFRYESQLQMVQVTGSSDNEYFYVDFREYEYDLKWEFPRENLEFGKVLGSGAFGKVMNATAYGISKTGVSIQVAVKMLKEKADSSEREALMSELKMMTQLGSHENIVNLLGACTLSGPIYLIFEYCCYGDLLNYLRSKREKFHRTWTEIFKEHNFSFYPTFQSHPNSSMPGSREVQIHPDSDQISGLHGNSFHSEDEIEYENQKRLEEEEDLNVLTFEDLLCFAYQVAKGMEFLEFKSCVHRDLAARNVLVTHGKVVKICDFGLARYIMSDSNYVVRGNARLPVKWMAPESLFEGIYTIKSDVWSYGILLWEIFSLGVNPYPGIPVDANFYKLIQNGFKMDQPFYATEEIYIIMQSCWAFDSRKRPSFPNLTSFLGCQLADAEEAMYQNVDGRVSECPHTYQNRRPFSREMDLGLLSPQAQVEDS
protocol_description: FLT3 (D835Y) enzyme inhibition, 10-dose IC50 (Reaction Biology)
setup_conditions: 10 μM ATP
pIC50: −log10 of the molar value.
reported_metric: pIC50

Request: Which pIC50 value is on record for Cc1c[nH]c(CNC(=O)c2ccc(-c3nc4ccc5[nH]ncc5c4c4c3CCCC4)cc2)n1 [Compound HSK205] ?
Response: > 9.30

###

system_name: FLT3-ITD (Homo sapiens, UniProt P36888)
protocol_description: FLT3-ITD enzyme inhibition, 10-dose IC50 (Reaction Biology)
setup_conditions: 10 μM ATP
reported_metric: IC50

Request: FLT3-ITD (Homo sapiens, UniProt P36888) / IC50 / Cc1c[nH]c(CNC(=O)c2ccc(-c3nc4ccc5[nH]ncc5c4c4c3CCCC4)cc2)n1 : value?
Response: < 0.5 nM

###

system_name: FLT3 (Homo sapiens, UniProt P36888)
protocol_description: ADP Glo Kinase Assay, FLT3, 50 nM inhibitor
Assay type: biochemical
setup_conditions: 50 nM inhibitor conc.; means of triplicates; read-out: Percent Inhibition (%) FLT3
reported_metric: inhibition at 0.05 µM (%)

Known results for compounds:
| compound | unit_name | inhibition at 0.05 µM |
| --- | --- | --- |
| O=C(NCc1ncc[nH]1)c1ccc(-c2nc3ccc4[nH]ncc4c3c3c2CCCC3)cc1 | % | 76 |
| O=C(NCc1c[nH]cn1)c1ccc(-c2nc3ccc4[nH]ncc4c3c3c2CCCC3)cc1 | % | 49 |
| FC(F)(F)c1n[nH]cc1-c1nc2ccc3[nH]ncc3c2c2c1CCCC2 [HSD1169, reference compound] | % | 81 |
| O=C(NCc1nnn[nH]1)c1ccc(-c2nc3ccc4[nH]ncc4c3c3c2CCCC3)cc1 | % | 51 |
| O=C(NCc1ncc[nH]1)c1ccc(-c2nc3ccc4[nH]ncc4c3c3c2CCCC3)c(F)c1 | % | 88 |

a: O=C(NCCc1ncc[nH]1)c1ccc(-c2nc3ccc4[nH]ncc4c3c3c2CCCC3)cc1
b: O=C(NCc1cc[nH]c1)c1ccc(-c2nc3ccc4[nH]ncc4c3c3c2CCCC3)cc1
Request: Compare a and b by numeric inhibition at 0.05 µM and name the larger one. Use the label to indicate which entry you chose.
Response: a
(a: 71%, b: 46%)

The values you see were collected from patent US20250320203A1.
